System: K4 kissing-loop RNA reporter
Assay: apparent KD of K4 kissing-loop reporter; higher = weaker reporter binding
Conditions: Eterna round: R107; input ligand: none
Response key: satisfied means apparent KD of K4 kissing-loop reporter >= 0.2 µM; not satisfied means apparent KD of K4 kissing-loop reporter < 0.2 µM.

>  <seq>
UGUUCAAGUGAUGUUUGAGACUAGGUGGAUACCAGCGCAUGCAGUCGCCCUUGGCAGCCAGAAACCAACGCCGCGCGCUUCGGCU [theeternabot_sameState_KL_Theo_A_39]

>  <target.entity>
K4 kissing-loop RNA reporter

>  <category.label>
satisfied

$$$$
>  <seq>
AUUUAGACGAGUGAUGUUCGUGUUAUUACAGAGGAUAUGCGUGAUUGCAGAAGGCUGUAUUUAUAUAUGUUAUGUGGUUUUAAAA [whbob_Ex_FMNA__2th186]

>  <target.entity>
K4 kissing-loop RNA reporter

>  <category.label>
not satisfied

$$$$
>  <seq>
GCUCAGGAGUGAUGUUCCAAGUGAUGUUAACGAGGACCGGUACGGCCGCCACUCGAUACGGCCGGACCGUAGGAUAAACUAGAGC [Same State - Tryptophan A (Freestyle 9)]

>  <target.entity>
K4 kissing-loop RNA reporter

>  <category.label>
not satisfied

$$$$
>  <seq>
AUUCUAUUGUGAAGGAGCGCGUAUAGUAGUGAUGUUACUAUAAUGAUAGAUACUUAAUUCUCGCAGGUAGGUCGCACAAUAUAUA [JR_Nu_ExcArginiB_Sub024]

>  <target.entity>
K4 kissing-loop RNA reporter

>  <category.label>
not satisfied

$$$$
>  <seq>
UGUUUUUACUGAAGGAGCGGCAAUUGAUACGUAGAUAUAGUGAUGUUAUAUAAGAUAGAGAGCCAGGUAGGUCGCAGAAUGAAUC [ExArgB.aD]

>  <target.entity>
K4 kissing-loop RNA reporter

>  <category.label>
not satisfied

$$$$
>  <seq>
GCAGUCAAUCGACCACGAAAGUGGAUGGAUACCAGAGUCGAAAGACUCCCUUGGCAGCCAGUGAUGUUGGAAGACUGCAAUAAAA [#SwitchBubble 16 #K4Late]

>  <target.entity>
K4 kissing-loop RNA reporter

>  <category.label>
satisfied

$$$$
>  <seq>
CUUGAUGGAAACAUCGAGUAGAUUACUGAUACCAGUAUCGAUAGAUACCCUUGGCAGCAGAAUCAGUAAUCACGAGUGAUGUUCG [Ex Theophylline A K4 7]

>  <target.entity>
K4 kissing-loop RNA reporter

>  <category.label>
satisfied

$$$$
>  <seq>
UGACUGGAUGGAAGGAGCGCUAAACUCCUAGUGAUGUUAGGGAUAUGAGGCAAAGCCUCGAAGCAGGUAGGUCGCCAUCUAGUCU [FiskerMod 20 - Jieux - Same State - Arginine B]

>  <target.entity>
K4 kissing-loop RNA reporter

>  <category.label>
not satisfied

$$$$
>  <seq>
UGUAUGUGAUUUGAUACCAGACCAGCUGAUGGAUCACGAGUGAUGUUCGUGUUGGUUUGGGUCCCUUGGCAGCAAAUCGCAUACU [KL-SSTheoB14]

>  <target.entity>
K4 kissing-loop RNA reporter

>  <category.label>
satisfied

$$$$

---

Collected apparent KD of K4 kissing-loop reporter values appear next to each entry.
Test system: K4 kissing-loop RNA reporter;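 further: bound reporter read as fluorescence of individual clusters on recovered sequencing chips by microscopy, with normalized cluster intensities fitted with a binding model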
Assay: apparent KD of K4 kissing-loop reporter; higher = weaker reporter binding
Settings: Eterna round: R107; input ligand: tryptophan 2.4 mM

>  <seq>
UGUACCGAGUCAGGAUAUGGCGUCGAAAGACGAAUUCUAGUGAUGUUAGGGAUCUGCGAAAGCAGUCUAGAAGGGACUUGGUACU [FmnBS 26 U36+U68]

>  <apparent KD of K4 kissing-loop reporter, nM>
512

$$$$
>  <seq>
GUCUCAAAAGAGGCAAGCACUCACGAGGACAAGGAUAUCAUCUCAAUGAGAAGGUGUCCUCGUCCCUAGUGAUGUUAGGGAGUGC [Omei KL FMN A SS E v2]

>  <apparent KD of K4 kissing-loop reporter, nM>
468

$$$$
>  <seq>
GUCAUCAGAUCGCAAGAUCUGAUAGCCGAUACCAGCGCGAAGGUGCGCCCUUGGCAGCGGCACCGAGUGAUGUUCGGUCAGACGA [#2 Same State - Theophylline A Attempt #5 (HarryS)]

>  <apparent KD of K4 kissing-loop reporter, nM>
427

$$$$
>  <seq>
AUGGUGGAUCAGUGAUGUUGGUGGAGUACGUAGGAUAUGAGUGAUGUUAGAAGGAUGGGAGUGAUGUUCCAGGUGGUUGUGUUGU [KL-SSFMN-A1]

>  <apparent KD of K4 kissing-loop reporter, nM>
492

$$$$
>  <seq>
AAUUCAGCUAGUGAUGUUAGCGUAGAGUGCAAGGAUAUCCCUGUCAGGAGAAGGUGCGUAGAACGUUUGCCAUCAGAUUGUCCCA [theeternabot_exclusion_KL_FMN_A_48]

>  <apparent KD of K4 kissing-loop reporter, nM>
109

$$$$
>  <seq>
GUUACGCAUGGAAGGAGCGCACUCCGAUUGAUCGACACAGUGAUGUUGUGGUUCGUUCGAAUGCAGGUAGGUCGCCAUGUGUAAC [Ex Arginine B K4 17]

>  <apparent KD of K4 kissing-loop reporter, nM>
233

$$$$
